- Test system: MC5-R (Homo sapiens, UniProt P33032)
- Sequence (P33032 whole entry): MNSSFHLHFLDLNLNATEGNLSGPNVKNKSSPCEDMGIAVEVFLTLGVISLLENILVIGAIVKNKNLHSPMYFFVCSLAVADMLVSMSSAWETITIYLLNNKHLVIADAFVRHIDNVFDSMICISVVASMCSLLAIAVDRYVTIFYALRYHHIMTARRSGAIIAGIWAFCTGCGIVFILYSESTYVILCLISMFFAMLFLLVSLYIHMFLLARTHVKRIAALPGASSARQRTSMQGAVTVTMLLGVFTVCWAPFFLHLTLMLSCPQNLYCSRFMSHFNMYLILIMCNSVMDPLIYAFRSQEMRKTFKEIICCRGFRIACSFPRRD
- Experimental details: Competitive inhibition binding assay, 125I-NDP-α-MSH, MC5-R
- Design: expressed in transfected cells
- Run conditions: 1 μM compound; inhibition of 125I-NDP-α-MSH binding; mean of triplicates; results less than 0% reported as 0%
Readout label: Inhibition at 1 μM MC5-R (%)

Would you please look over these solved cases?
{"Compound": "NCCCC[C@H]1C(=O)N2C(CC[C@@H]2COc2ccc3ccccc3c2)N1C(=O)[C@@H](Cc1ccccc1Cl)NC(=O)[C@@H]1C[C@H](Oc2ccc3ccccc3c2)CN1 (stereo partly drawn)", "Quantity unit": "%", "Inhibition at 1 μM MC5-R": 17}
{"Compound": "NCCCC[C@H]1C(=O)N(CCc2ccccc2)CCN1C(=O)[C@@H](Cc1ccc(Cl)cc1)NC(=O)[C@@H]1Cc2ccccc2CN1", "Quantity unit": "%", "Inhibition at 1 μM MC5-R": 16}
{"Compound": "NCCCNC(=O)[C@@H]1C[C@@H](OCc2ccccc2)CN1C(=O)[C@@H](Cc1ccccc1)NC(=O)[C@H](N)Cc1ccc2ccccc2c1", "Quantity unit": "%", "Inhibition at 1 μM MC5-R": 0}

a: NC(=O)CC[C@H]1C(=O)N(CCc2ccc3ccccc3c2)CCN1C(=O)[C@H](N)Cc1ccc(Cl)cc1Cl
b: NCCCC[C@H]1C(=O)N(CCc2ccc3ccccc3c2)CCN1C(=O)[C@@H](Cc1ccc(Cl)cc1Cl)NC(=O)[C@@H](N)COCc1ccccc1
Select the item whose Inhibition at 1 μM MC5-R value is smaller, choosing between a and b . API: response body contains the label of the selected item.
a

Just for reference, patent US7807678B2 is where these values come from.
